Could you please report measured protein stability index for the items listed next?
B1: LYSMD4 (parent)
chain: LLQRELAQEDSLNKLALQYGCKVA

variants of: B1; experiment: protein stability index of a GFP-peptide fusion (GPS, HEK-293T) (PSI 1-6); higher = more stable; conditions: c terminus: a fixed tail appended;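 note: lentivirally expressed fusions sorted by FACS into six bins by GFP to DsRed ratio, PSI derived from sequencing read proportions per bin multiplied by bin number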
Numbers only.

Known results for variants:
S11A: 1.76
L12P: 3.54
Q8S: 2.25
K14H: 2.07
N13D: 1.03

List reported protein stability index for each of these variants:
1. A7H
2. Y19K
3. L6R
4. L1T

2.72
2.11
1.61
1.8

Count: 7. Required value per item: protein stability index.
1. L15W
2. K22N
3. E9Q
4. G20Y
5. L1R
6. L12S
7. C21S

1: 1.2; 2: 2.65; 3: 2.2; 4: 1.74; 5: 1.6; 6: 3.54; 7: 2.49

Record protein stability index for all entries; do not skip any.
1. K22P
2. L2M
3. L2C

[3.45, 2.27, 1.67]

# batch: return protein stability index for each of the 3 variants below
1. L17E
2. D10K
3. A16Y

1: 1.82; 2: 1.86; 3: 1.26
